Reported solubility values follow for various compounds
Experiment: Solubility in organic solvents
Assay type: physicochemical
Settings: acetone, organic solvent or mixture; read-out: Solubility, Acetone

Sample smiles: CC(C)c1ccc2sc3ccccc3c(=O)c2c1
solubility: 300 mg/mL

Sample smiles: Cc1ccc2sc3ccccc3c(=O)c2c1
solubility: 30 mg/mL

Sample smiles: CC(C)c1cc(C(C)C)c2sc3ccccc3c(=O)c2c1
solubility: > 400 mg/mL

Sample smiles: O=c1c2ccccc2sc2ccccc12
solubility: < 5 mg/mL

----------
Test: Solubility in organic solvents
Assay type: physicochemical
Settings: ethanol, organic solvent or mixture; read-out: Solubility, Ethanol
Reported solubility values follow for various compounds

Compound: CC(C)c1cc(C(C)C)c2sc3ccccc3c(=O)c2c1 [Example 2, 2,4-diisopropylthioxanthone]
solubility: 90 mg/mL

Compound: CC(C)c1ccc2sc3ccccc3c(=O)c2c1 [Compound 3, 2-isopropylthioxanthone]
solubility: 36 mg/mL

Compound: O=c1c2ccccc2sc2ccccc12 [Compound 1, thioxanthone]
solubility: < 5 mg/mL

Compound: Cc1ccc2sc3ccccc3c(=O)c2c1 [Compound 2, 2-methylthioxanthone]
solubility: < 10 mg/mL

----------
Assay: Solubility in organic solvents
Format: physicochemical
Conditions: 1,2-dichloroethane, organic solvent or mixture; read-out: Solubility, 1,2-Dichloroethane
Result type: solubility

Sample smiles: Cc1ccc2sc3ccccc3c(=O)c2c1
Result: 166 mg/mL

Sample smiles: O=c1c2ccccc2sc2ccccc12
Result: 11 mg/mL

Sample smiles: CC(C)c1ccc2sc3ccccc3c(=O)c2c1
Result: > 500 mg/mL

Sample smiles: CC(C)c1cc(C(C)C)c2sc3ccccc3c(=O)c2c1
Result: > 500 mg/mL

----------
Assay: Solubility in organic solvents
Assay type: physicochemical
Details: toluene, organic solvent or mixture; read-out: Solubility, Toluene
Result type: solubility

Compound: Cc1ccc2sc3ccccc3c(=O)c2c1 [Compound 2, 2-methylthioxanthone]
Result type: solubility
Result: 55 mg/mL
//
Compound: CC(C)c1ccc2sc3ccccc3c(=O)c2c1 [Compound 3, 2-isopropylthioxanthone]
Result type: solubility
Result: > 500 mg/mL
//
Compound: CC(C)c1cc(C(C)C)c2sc3ccccc3c(=O)c2c1 [Example 2, 2,4-diisopropylthioxanthone]
Result type: solubility
Result: > 500 mg/mL
//
Compound: O=c1c2ccccc2sc2ccccc12 [Compound 1, thioxanthone]
Result type: solubility
Result: < 5 mg/mL

----------
Test: Yellowing resistance of coating film after irradiation, estimated visually
Set-up: key: A: Only slight yellowing; B: Clear yellowing; C: Remarkable yellowing
Details: Table III, Control Example 1; same criteria as Table II
Result type: Yellowing resistance

Molecule: CCc1ccc(CC)c2c(=O)c3ccccc3sc12 [1,4-Diethylthioxanthone]
Result: A
//
Molecule: CC(C)c1ccc(C(C)C)c2c(=O)c3ccccc3sc12 [1,4-Diisopropylthioxanthone]
Result: A
//
Molecule: CCc1c(C(C)C)ccc2sc3ccccc3c(=O)c12 [1-Ethyl-2-isopropylthioxanthone]
Result: A
//
Molecule: Cc1ccc(C)c2c(=O)c3ccccc3sc12 [1,4-Dimethylthioxanthone]
Result: B
//
Molecule: CCc1ccc(C)c2c(=O)c3ccccc3sc12 [1-Methyl-4-ethylthioxanthone]
Result: B
//
Molecule: CC(C)c1ccc2sc3ccccc3c(=O)c2c1 [Isopropylthioxanthone]
Result: B

----------
Assay: Hardening time of photopolymerizable resin film under continuous xenon lamp irradiation (until surface ceases to be sticky)
Conditions: Table II; 2.5 parts initiator, 2.5 parts triethanolamine; 25μ film on glass; xenon lamp 9 cm

Compound: CCc1cc(CC)c2sc3ccccc3c(=O)c2c1 [Example 1, 2,4-diethylthioxanthone]
Hardening time (s): 15
--
Compound: CC(C)c1cc(C(C)C)c2sc3ccccc3c(=O)c2c1 [Example 2, 2,4-diisopropylthioxanthone]
Hardening time (s): 10
--
Compound: Cc1cc(C(C)(C)C)cc2c(=O)c3ccccc3sc12 [Example 5, m-tert-butylmethyl thioxanthone]
Hardening time (s): 15
--
Compound: CC(C)(C)c1cc(C(C)(C)C)c2sc3ccccc3c(=O)c2c1 [Example 10, 2,4-di-tert-butylthioxanthone]
Hardening time (s): 25

// provenance: patent US4450279A
